biological target: Peptidyl-prolyl cis-trans isomerase NIMA-interacting 1 (Homo sapiens) (UniProt Q13526); assay: qHTS Assay to Find Inhibitors of Pin1: Hit Validation using Tamra Binding; details: Pin1 Tamra-peptide displacement, fluorescence polarization, 10 min; series mostly up to 57.5 µM
Sequence (Q13526 whole entry, looked up): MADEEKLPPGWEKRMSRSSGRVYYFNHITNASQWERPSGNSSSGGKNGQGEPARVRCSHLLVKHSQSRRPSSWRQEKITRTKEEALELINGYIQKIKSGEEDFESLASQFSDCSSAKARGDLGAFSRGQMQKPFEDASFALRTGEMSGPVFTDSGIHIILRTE
Inconclusive results are not listed. The source made the active and inactive calls. The call rests on the fitted dose curve; in most records, active means well fitted inhibition curve with a large enough effect; inconclusive means small, poorly fitted or top-dose-only effect; inactive means no such curve, though single readings can be large or run the other way.
Labels: active, inactive

structure-string: COc1ccc(S(=O)(=O)Nc2cc(Sc3ncn[nH]3)c(O)c3ccccc23)cc1
target-or-test-system: Peptidyl-prolyl cis-trans isomerase NIMA-interacting 1 (Homo sapiens) (UniProt Q13526)
qualitative-label: inactive
--
structure-string: Nc1ccc2cccc(O)c2c1
target-or-test-system: Peptidyl-prolyl cis-trans isomerase NIMA-interacting 1 (Homo sapiens) (UniProt Q13526)
qualitative-label: active
--
structure-string: O=S(=O)(O)c1cc(O)c2cc(Nc3ccccc3)ccc2c1
target-or-test-system: Peptidyl-prolyl cis-trans isomerase NIMA-interacting 1 (Homo sapiens) (UniProt Q13526)
qualitative-label: active
--
structure-string: Cc1ccc2nc(-c3ccc(N=Nc4cc(S(=O)(=O)O)c5ccccc5c4O)cc3)sc2c1S(=O)(=O)O
target-or-test-system: Peptidyl-prolyl cis-trans isomerase NIMA-interacting 1 (Homo sapiens) (UniProt Q13526)
qualitative-label: inactive
--
structure-string: CC(=O)Nc1ccc(Nc2c3c4c(cccc4n(C)c2=O)C(=O)c2ccccc2-3)cc1
target-or-test-system: Peptidyl-prolyl cis-trans isomerase NIMA-interacting 1 (Homo sapiens) (UniProt Q13526)
qualitative-label: inactive
--
structure-string: O=S(=O)(Nc1cc(Sc2ncn[nH]2)c(O)c2ccccc12)c1ccccc1
target-or-test-system: Peptidyl-prolyl cis-trans isomerase NIMA-interacting 1 (Homo sapiens) (UniProt Q13526)
qualitative-label: inactive

Values compiled from PubChem BioAssay AID624312.
